system: Ovarian cancer cell line; assay: Clonogenic survival activity against human ovarian cancer cells (2008, C13*) cells; 0.01-10 range; type: functional, cell-based
TEST_READOUT: IC50 (nM)
Please give a number only; it is taken to be in nM.

Look up IC50 with Ovarian cancer cell line for this compound: CNC(=S)N(C)CCNc1c2ccccc2nc2ccccc12
10
